Item-by-item account of drug sensitivity score
System: Vero E6
testName: drug sensitivity score (DSS) for viability; higher = more toxic; extreme values may be limits of the assay
conditionParameters: 72 h

COc1nc(C)nc(Cl)c1NC1=NCCN1	0
CCCc1nc(C(C)(C)O)c(C(=O)O)n1Cc1ccc(-c2ccccc2-c2nnn[nH]2)cc1	0
CCC(=O)NO	0.1

Requested read-out drug sensitivity score, target or system Vero E6, entry O=P(O)(O)C(Cl)(Cl)P(=O)(O)O
0

Requested read-out drug sensitivity score, target or system Vero E6, entry CC=C1C(=O)C[C@H]2[C@@H]3CCC4=CC(=O)CC[C@]4(C)[C@H]3CC[C@]12C
0

Requested read-out drug sensitivity score, target or system Vero E6, entry Cc1nc(NC(=O)N2CCC[C@H]2C(N)=O)sc1-c1ccnc(C(C)(C)C(F)(F)F)c1
1.2

Requested read-out drug sensitivity score, target or system Vero E6, entry CC(C)OC(=O)[C@H](C)N[P@@](=O)(OC[C@H]1O[C@@H](n2ccc(=O)[nH]c2=O)[C@](C)(F)[C@@H]1O)Oc1ccccc1
0

---

System: U2OS
testName: cell viability relative to DMSO; higher = less toxic
conditionParameters: 72 h; 10000 nM
Label yes when cell viability is strictly below 90%; at or above that, label no.

O=C(Nc1ccc(Cl)nc1)c1ccc(Cl)cc1	no
O=c1c(-c2ccccc2)c1-c1ccccc1 [diphencyprone]	yes
COc1cc2nc(N3CCN(C(=O)C4CCCO4)CC3)nc(N)c2cc1OC (stereo not drawn) [terazosin]	no
COc1cc2c(cc1F)C(c1ccccc1Cl)=Nc1c(n[nH]c1C)N2 [RG1530]	yes
Oc1ccc2ccccc2c1SSc1c(O)ccc2ccccc12 [IPA-3]	no
O=C(c1cc2ccccc2o1)N1CCN(Cc2ccccc2)CC1 [befuraline]	no
CC1(C)C(=O)N(CCN2CCC(C(=O)c3ccc(F)cc3)CC2)c2ccccc21	no
C=CC(=O)Nc1ccc2ncnc(Nc3ccc(OCc4cccc(F)c4)c(Cl)c3)c2c1 [AST-1306]	yes
CC(C)OC(=O)[C@H](C)N[P@@](=O)(OC[C@H]1O[C@@H](n2ccc(=O)[nH]c2=O)[C@](C)(F)[C@@H]1O)Oc1ccccc1 [PSI-7976]	no
CCOC(=O)C1=C(COCCN)NC(C)=C(C(=O)OC)C1c1ccccc1Cl (stereo not drawn) [amlodipine]	no

Please examine the following record next.
Consider the compound Cc1cccc(C)c1OCC(=O)N[C@@H](Cc1ccccc1)[C@@H](O)C[C@H](Cc1ccccc1)NC(=O)[C@H](C(C)C)N1CCCNC1=O [Lopinavir] . Is its cell viability strictly less than 90%?
no

---

Tested on: Caco-2
testName: cell viability relative to DMSO; higher = less toxic
conditionParameters: 72 h; 10 nM
Item-by-item account of cell viability
Report only the number, with the unit % understood.

Return reported cell viability; argument: NCCCCN [putrescine]
102

Return reported cell viability; argument: CC(=O)OCC(=O)NCCCOc1cccc(CN2CCCCC2)c1 [roxatidine-acetate]
91.5

Return reported cell viability; argument: O=P(O)(O)C(Cl)(Cl)P(=O)(O)O [clodronic-acid]
103

Return reported cell viability; argument: COc1cc2c(cc1OC)CN(C(=O)/C=C/c1c(-c3ccccc3)n(C)c3ncccc13)CC2 [SIS3]
94.5

Return reported cell viability; argument: C[C@]12CC[C@H]3[C@@H](CCC4=CC(=O)CC[C@@]43C)[C@@H]1CC[C@@H]2O [TESTOSTERONE]
97.6

Return reported cell viability; argument: CN1[C@@H]2CC[C@H]1C[C@@H](OC(=O)c1c[nH]c3ccccc13)C2 [tropisetron]
108

Return reported cell viability; argument: O=C(c1cc2ccccc2o1)N1CCN(Cc2ccccc2)CC1 [befuraline]
91

Return reported cell viability; argument: O=C(NCCCN1CCCCCC1)C(c1ccccc1)C1CCCCC1 (stereo not given)
101

Return reported cell viability; argument: CCC(=O)NO [ZAMI-633]
96.7

Return reported cell viability; argument: C#C[C@]1(OC(C)=O)CC[C@H]2[C@@H]3CCC4=C[C@@H](OC(C)=O)CC[C@@H]4[C@H]3CC[C@@]21C [ethynodiol-diacetate]
96.9

Return reported cell viability; argument: O=C(O)c1c(Sc2ccccc2)c2cc(Cl)ccc2n1Cc1ccc(Cl)cc1 [nTZDpa]
97
